Each recorded value in this set is attributed to patent US11702417B2.

test system: FD (familial dysautomonia) IKBKAP minigene, exon 20 inclusion, in HEK293T cells; assay: Primary splicing assay (FD IKBKAP minigene, Firefly/Renilla luciferase reporter in HEK293T); assay type: cell-based, human; conditions: Homo sapiens, HEK-293T; max efficacy in Primary Assay; Firefly/Renilla ratio, kinetin and DMSO as positive and negative controls; 24 hours of treatment; read-out: Emax (%)
measurement.type: Emax (%)
Answer in %, number only, no unit symbol.

Here are 3 molecules together with their reported answers.
Consider the molecule Clc1nc(NCc2cccnc2)c2cc[nH]c2n1 . State its measured Emax.
26

Consider the molecule OCCn1ccc2c(NCc3ccncn3)nc(Cl)nc21 . State its measured Emax.
264

Consider the molecule Clc1cc(NCc2ccco2)n2nccc2n1 . State its measured Emax.
21

***
Consider the molecule COCc1cc2c(NCc3ccco3)nc(Cl)nc2[nH]1 . State its measured Emax.
80

Consider the molecule CC(C)c1nc(NCc2ccco2)c2nc[nH]c2n1 . State its measured Emax.
13

Consider the molecule COc1nc2c(NCc3ccncc3)nc(Cl)nc2[nH]1 . State its measured Emax.
169
